system_name: Histone deacetylase 8 (Homo sapiens)
Sequence (Q9BY41 whole entry): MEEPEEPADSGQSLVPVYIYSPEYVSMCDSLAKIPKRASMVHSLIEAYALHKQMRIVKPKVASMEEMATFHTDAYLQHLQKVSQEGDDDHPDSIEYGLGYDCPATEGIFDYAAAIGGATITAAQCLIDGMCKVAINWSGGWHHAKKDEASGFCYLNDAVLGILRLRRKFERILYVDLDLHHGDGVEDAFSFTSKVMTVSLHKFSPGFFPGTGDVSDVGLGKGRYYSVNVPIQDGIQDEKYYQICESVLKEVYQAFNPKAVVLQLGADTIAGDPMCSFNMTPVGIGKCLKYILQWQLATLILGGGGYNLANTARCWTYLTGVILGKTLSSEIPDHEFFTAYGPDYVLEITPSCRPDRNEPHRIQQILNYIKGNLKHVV
readout_kind: pIC50
Answers are plain numbers, as −log10 of the molar value.

1) CCC(=O)CCCCC[C@H](NC(=O)[C@H]1CC12CCN(CC)CC2)c1[nH]c(-c2ccc(F)cc2)nc1C(N)=O; 5.20

Hey, quick one: what's pIC50 for each of these?
1. CCC(=O)CCCCC[C@H](NC(=O)c1ccon1)c1[nH]c(-c2ccc(F)cc2)nc1C#N
2. CCC(=O)CCCCC[C@H](NC(=O)[C@H]1CC12CCN(C)CC2)c1[nH]c(-c2ccc(F)cc2)nc1C(N)=O

Completion:
4.79
5.17
